# Test system: Staph. aureus V41
# Experiment Notes: standard in vitro agar dilution assay (MIC)
# Assay type: cell-based
# Test Conditions: Staphylococcus aureus; Staph. aureus strain V41; read-out: Agar Dilution MIC
Assay Metric: MIC (µg/mL)
Give bare numbers, in µg/mL.

Check out these entries, answers already filled in.
| Compound | Measure Unit | Value Observed |
| --- | --- | --- |
| CO/N=C(\C(=O)N[C@@H]1C(=O)N2C(C(=O)[O-])=C(C[n+]3cccc4nc(N)sc43)CS[C@H]12)c1csc(N)n1 | µg/mL | 2 |
| CO/N=C(\C(=O)NC1C(=O)N2C(C(=O)[O-])=C(C[n+]3ccc4sc(C)nc4c3)CSC12)c1csc(N)n1 (stereo not shown) | µg/mL | 8 |
| CO/N=C(\C(=O)NC1C(=O)N2C(C(=O)[O-])=C(C[n+]3cccc4oc(N)nc43)CSC12)c1csc(N)n1 (stereo not shown) | µg/mL | 4 |
| CO/N=C(\C(=O)NC1C(=O)N2C(C(=O)[O-])=C(C[n+]3ccc4[nH]c(C)nc4c3)CSC12)c1csc(N)n1 (stereo not shown) | µg/mL | 8 |
| CO/N=C(\C(=O)NC1C(=O)N2C(C(=O)[O-])=C(C[n+]3ccc4ncn(C)c4c3)CSC12)c1csc(N)n1 (stereo not shown) | µg/mL | 4 |

Would you mind giving MIC for every compound in the list below?
1. CO/N=C(\C(=O)NC1C(=O)N2C(C(=O)[O-])=C(C[n+]3ccc4[nH]cnc4c3)CSC12)c1csc(N)n1 (stereo not shown)
2. CO/N=C(\C(=O)NC1C(=O)N2C(C(=O)[O-])=C(C[n+]3ccc4[nH]c(-c5ccccc5)nc4c3)CSC12)c1csc(N)n1 (stereo not shown)

Output line:
1: 8; 2: 8

====

Please provide measured MIC for the entries that follow.
# Test system: Serratia X99
# Experiment Notes: standard in vitro agar dilution assay (MIC)
# Assay type: cell-based
# Test Conditions: Serratia, X99, read-out: Agar Dilution MIC
Answer by giving the amount and then stating its unit.

Would you mind giving MIC for every compound in the list below?
1. CO/N=C(\C(=O)NC1C(=O)N2C(C(=O)[O-])=C(C[n+]3ccc4[nH]c(-c5cccs5)nc4c3)CSC12)c1csc(N)n1 (centres unmarked)
2. CC(C)(O/N=C(\C(=O)NC1C(=O)N2C(C(=O)[O-])=C(C[n+]3ccc4[nH]cnc4c3)CSC12)c1csc(N)n1)C(=O)O (centres unmarked)
3. CO/N=C(\C(=O)NC1C(=O)N2C(C(=O)[O-])=C(C[n+]3ccc4nc(C)sc4c3)CSC12)c1csc(N)n1 (centres unmarked)
4. CO/N=C(\C(=O)NC1C(=O)N2C(C(=O)[O-])=C(C[n+]3cccc4oc(N)nc43)CSC12)c1csc(N)n1 (centres unmarked)
5. CO/N=C(\C(=O)NC1C(=O)N2C(C(=O)[O-])=C(C[n+]3ccc4oc(C)nc4c3)CSC12)c1csc(N)n1 (centres unmarked)

Output line:
["0.5 µg/mL", "0.5 µg/mL", "0.125 µg/mL", "0.125 µg/mL", "0.125 µg/mL"]

====

Please provide measured MIC for the entries that follow.
# Test system: E. coli N10
# Experiment Notes: standard in vitro agar dilution assay (MIC)
# Format: cell-based
# Test Conditions: Escherichia coli, N10, read-out: Agar Dilution MIC
Numbers only, in µg/mL.

Would you mind giving MIC for every molecule in the list below?
1. CO/N=C(\C(=O)NC1C(=O)N2C(C(=O)[O-])=C(C[n+]3ccc4nc(C(C)(C)C)sc4c3)CSC12)c1csc(N)n1 (stereo not shown)
2. CC(C)(O/N=C(\C(=O)N[C@@H]1C(=O)N2C(C(=O)[O-])=C(C[n+]3ccccc3)CS[C@H]12)c1csc(N)n1)C(=O)O [Ceftazidime, ceftazidime, reference compound]
3. CO/N=C(\C(=O)NC1C(=O)N2C(C(=O)[O-])=C(C[n+]3cccc4oc(N)nc43)CSC12)c1csc(N)n1 (stereo not shown)

Output line:
1: 0.5; 2: 0.25; 3: 0.125

Input line: Query (molecule): CC(C)(O/N=C(\C(=O)NC1C(=O)N2C(C(=O)[O-])=C(C[n+]3ccc4[nH]cnc4c3)CSC12)c1csc(N)n1)C(=O)O (stereo not shown) ; field requested: MIC
Output line: 0.5

====

Please provide measured MIC for the entries that follow.
# Tested on: Strep. PN PARK
# Experiment Notes: standard in vitro agar dilution assay (MIC)
# Format: cell-based
# Test Conditions: Strep. PN strain PARK

Check out these entries, answers already filled in.
| Compound | Value Observed |
| --- | --- |
| CO/N=C(\C(=O)NC1C(=O)N2C(C(=O)[O-])=C(C[n+]3ccc4nc(C(C)(C)C)sc4c3)CSC12)c1csc(N)n1 (stereo not drawn) | 0.015 µg/mL |
| CO/N=C(\C(=O)NC1C(=O)N2C(C(=O)[O-])=C(C[n+]3ccc4sc(C)nc4c3)CSC12)c1csc(N)n1 (stereo not drawn) | < 0.008 µg/mL |
| CO/N=C(\C(=O)NC1C(=O)N2C(C(=O)[O-])=C(C[n+]3ccc4c(c3)ncn4C)CSC12)c1csc(N)n1 (stereo not drawn) | 0.15 µg/mL |
| CO/N=C(\C(=O)NC1C(=O)N2C(C(=O)[O-])=C(C[n+]3cccc4oc(N)nc43)CSC12)c1csc(N)n1 (stereo not drawn) | 0.015 µg/mL |
| CO/N=C(\C(=O)NC1C(=O)N2C(C(=O)[O-])=C(C[n+]3ccc4[nH]c(-c5ccccc5)nc4c3)CSC12)c1csc(N)n1 (stereo not drawn) | < 0.008 µg/mL |

// next item, MIC requested
Input line: Query (compound): CO/N=C(\C(=O)NC1C(=O)N2C(C(=O)[O-])=C(C[n+]3ccc4oc(C)nc4c3)CSC12)c1csc(N)n1 (stereo not drawn) ; field requested: MIC
Output line: 0.015 µg/mL

====

# Test system: Klebsiella KAE
# Experiment Notes: standard in vitro agar dilution assay (MIC)
# Format: cell-based
# Test Conditions: Klebsiella strain KAE; read-out: Agar Dilution MIC
Please provide measured MIC for the entries that follow.
One number for each entry, in µg/mL.

Check out these entries, answers already filled in.
| Molecule | Measurement Target | MIC / µg/mL |
| --- | --- | --- |
| CO/N=C(\C(=O)NC1C(=O)N2C(C(=O)[O-])=C(C[n+]3ccc4[nH]c(-c5ccccc5)nc4c3)CSC12)c1csc(N)n1 (centres unmarked) [Example 9] | Klebsiella KAE | 2 |
| CO/N=C(\C(=O)NC1C(=O)N2C(C(=O)[O-])=C(C[n+]3cccc4oc(N)nc43)CSC12)c1csc(N)n1 (centres unmarked) [Example 10] | Klebsiella KAE | 4 |
| CO/N=C(\C(=O)NC1C(=O)N2C(C(=O)[O-])=C(C[n+]3ccc4c(c3)nc(C)n4C)CSC12)c1csc(N)n1 (centres unmarked) [Example 6] | Klebsiella KAE | 2 |
| CO/N=C(\C(=O)NC1C(=O)N2C(C(=O)[O-])=C(C[n+]3ccc4scnc4c3)CSC12)c1csc(N)n1 (centres unmarked) [Example 12] | Klebsiella KAE | 4 |
| CCc1nc2c[n+](CC3=C(C(=O)[O-])N4C(=O)C(NC(=O)/C(=N\OC)c5csc(N)n5)C4SC3)ccc2s1 (centres unmarked) [Example 14] | Klebsiella KAE | 2 |

Would you mind giving MIC for every molecule in the list below?
1. CO/N=C(\C(=O)NC1C(=O)N2C(C(=O)[O-])=C(C[n+]3ccc4nc(C(C)(C)C)sc4c3)CSC12)c1csc(N)n1 (centres unmarked) [Example 17]
2. CO/N=C(\C(=O)NC1C(=O)N2C(C(=O)[O-])=C(C[n+]3ccc4oc(C)nc4c3)CSC12)c1csc(N)n1 (centres unmarked) [Example 11]
3. CC(C)(O/N=C(\C(=O)NC1C(=O)N2C(C(=O)[O-])=C(C[n+]3ccc4[nH]cnc4c3)CSC12)c1csc(N)n1)C(=O)O (centres unmarked) [Example 1]

Output line:
[4, 4, 1]

====

# System: Klebsiella KAE
# Experiment Notes: standard in vitro agar dilution assay (MIC)
# Format: cell-based
# Test Conditions: Klebsiella strain KAE; read-out: Agar Dilution MIC
Assay Metric: MIC (µg/mL)
Answers are plain numbers, in µg/mL.

| Molecule | Value Observed |
| --- | --- |
| CO/N=C(\C(=O)NC1C(=O)N2C(C(=O)[O-])=C(C[n+]3ccc4[nH]cnc4c3)CSC12)c1csc(N)n1 (stereo not shown) | 4 |

Would you mind giving MIC for every molecule in the list below?
1. CO/N=C(\C(=O)NC1C(=O)N2C(C(=O)[O-])=C(C[n+]3ccc4c(c3)ncn4C)CSC12)c1csc(N)n1 (stereo not shown)
2. CO/N=C(\C(=O)NC1C(=O)N2C(C(=O)[O-])=C(C[n+]3ccc4nc(C)sc4c3)CSC12)c1csc(N)n1 (stereo not shown)
3. CO/N=C(\C(=O)NC1C(=O)N2C(C(=O)[O-])=C(C[n+]3ccc4nc(C)n(C)c4c3)CSC12)c1csc(N)n1 (stereo not shown)

Output line:
1. 4
2. 1
3. 2
